Sourced from patent US20230303690A1

- experimentalTarget: T1, LAG3 Protein, Human, Recombinant (His Tag) (Sino Biological Catalog No. 16498-H08H) (human, UniProt P18627 23-450)
- T1 construct: Bought protein; also called hLAG3-His; LAG3-His; not shown: His tag
- T1 sequence (looked up): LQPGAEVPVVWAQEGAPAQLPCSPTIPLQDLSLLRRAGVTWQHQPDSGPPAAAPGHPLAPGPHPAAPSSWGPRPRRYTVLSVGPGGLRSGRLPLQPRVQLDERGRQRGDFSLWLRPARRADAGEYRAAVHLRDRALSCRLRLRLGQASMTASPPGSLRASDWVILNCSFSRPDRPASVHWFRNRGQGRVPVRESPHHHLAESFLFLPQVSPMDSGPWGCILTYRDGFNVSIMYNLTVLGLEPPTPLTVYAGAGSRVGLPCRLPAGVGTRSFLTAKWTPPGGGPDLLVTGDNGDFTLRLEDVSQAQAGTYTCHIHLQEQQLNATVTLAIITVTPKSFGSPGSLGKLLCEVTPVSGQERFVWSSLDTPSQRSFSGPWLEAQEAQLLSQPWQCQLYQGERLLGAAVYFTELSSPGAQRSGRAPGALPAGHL
- testName: ELISA, coated hLAG3-His
So basically: OD450 at 44.445 nM at 0.1 or higher? That is 1.0. Lower than 0.1? That is 0.0.

Consider the following illustrative entries.
[
  {
    "binder": "sdAb No. 25-B7 (VHH, Humanized sdAb No. 25; not shown: Fc part implied by anti-human IgG Fc detection) VHH: QLQLVESGGGLVKPGGSLRLSCAASGSIESFSFMGWYRQAPGKQRELVAGFTGAASLSFSTYTDAVKGRFTISRDNAKNSVYLQMNSLRAEDTAVYFCNVDPWSQSWPGRYWGQGTTVTVSS",
    "groupLabel": 1.0
  },
  {
    "binder": "sdAb No. 27-H1B3 (VHH, Humanized sdAb No. 27-H1; not shown: Fc part implied by anti-human IgG Fc detection) VHH: QVQLVESGGGLVQPGGSLRLSCAASGFTLDYYAIGWFRQAPGKEREGVSCIRSSDASTYYADSVKGRFTISSDNSKNTVYLQMNSLRAEDTAVYYCATDRYSDCRGPYENWGQGTMVTVSS",
    "groupLabel": 1.0
  },
  {
    "binder": "sdAb No. 25-B6 (VHH, Humanized sdAb No. 25; not shown: Fc part implied by anti-human IgG1 Fc detection) VHH: QLQLVESGGGLVKPGGSLRLSCAASGSIESFSFMGWYRQAPGKQREWVAGFTGAASLSFSTYTDAVKGRFTISRDNAKNSVYLQMNSLRAEDTAVYYCNVDPWSQSWPGRYWGQGTTVTVSS",
    "groupLabel": 0.0
  },
  {
    "binder": "sdAb No. 27 (VHH, Fc of the tested form not described; also called sdAb 27; not shown: Fc part implied by anti-human Fc capture and anti-human IgG Fc detection) VHH: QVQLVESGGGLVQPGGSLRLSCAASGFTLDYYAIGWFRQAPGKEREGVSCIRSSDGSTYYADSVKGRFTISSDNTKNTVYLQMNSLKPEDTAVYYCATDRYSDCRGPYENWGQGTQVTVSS",
    "groupLabel": 1.0
  }
]

Ask: hey, is OD450 at 44.445 nM for this one >= 0.1? sdAb No. 25 (VHH, Fc of the tested form not described; also called sdAb 25; sdAb #25; not shown: Fc part implied by anti-human Fc capture and anti-human IgG Fc detection) VHH: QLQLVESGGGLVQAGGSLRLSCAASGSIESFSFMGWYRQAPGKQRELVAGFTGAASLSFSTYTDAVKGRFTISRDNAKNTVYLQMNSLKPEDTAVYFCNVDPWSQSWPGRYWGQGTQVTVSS
Reply: 1.0

Ask: hey, is OD450 at 44.445 nM for this one >= 0.1? sdAb No. 25-B5 (VHH, Humanized sdAb No. 25; not shown: Fc part implied by anti-human IgG1 Fc detection) VHH: QVQLVESGGGLVKPGGSLRLSCAASGSIESFSFMGWYRQAPGKQREWVAGFTGAASLSFSTYTDAVKGRFTISRDNAKNSLYLQMNSLRAEDTAVYYCNVDPWSQSWPGRYWGQGTTVTVSS
Reply: 1.0
